Hello, the source for this data is patent US20070099839A1, in case you need it.

measuredTarget: αM I domain (Homo sapiens)
Construct: GST-αM and GST-αL I domain fusion proteins were expressed and purified as described previously (30); made in house
Sequence (P11215 150-328 limits assumed): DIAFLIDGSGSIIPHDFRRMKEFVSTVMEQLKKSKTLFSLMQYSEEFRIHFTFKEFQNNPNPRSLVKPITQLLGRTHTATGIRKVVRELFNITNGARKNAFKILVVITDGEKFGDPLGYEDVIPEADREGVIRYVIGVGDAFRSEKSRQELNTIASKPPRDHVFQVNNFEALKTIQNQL
methodNotes: Binding of proMMP-9 to immobilized GST-αM I domain in the presence of competitor peptides (detected with GE-213 antibody)
testConditions: FIG. 4C, read-out: inhibition of proMMP-9 binding to the αM I domain, IC50
Method: (4C) Binding of proMMP-9 to the immobilized GST-αM I domain was studied in the presence of each peptide at the concentrations indicated. The binding was determined with the anti-MMP-9 antibody GE-213. ICAM-1, fibrinogen, proMMP-8, proMMP-9 or the recombinant domains (0.5 μg/well in PBS) were coated on plastic 96-well plates at +4° C. for 16 h and the wells were blocked with 3% bovine serum albumin (BSA) in PBS for 2 h at room temperature. […]
No end group written: not given here.
measuredProperty: IC50 (µM)
Write the answer as a number in µM, unit excluded.

// IC50 lookup, key: HFDDDE [HFDDDE] 20

* * *

System: PMNs
methodNotes: PMN adhesion to immobilized proMMP-9 (phosphatase assay)
Format: cell-based, human
testConditions: PMA-stimulated PMNs; peptide 50 μM, antibody 20 μg/ml; FIG. 5C
measuredProperty: inhibition of PMN adherence on proMMP-9

1. ADGACILWMDDGWCGAAG
inhibited
2. ADGACILWMKKGWCGAAG [control peptide for DDGW]
no effect
3. CTITHWGFTLC [CTT]
inhibited
4. DFEDHD
no effect
